System: THP-1 viability, CellTiter-Glo luminescence, 72 h
Assay: THP-1 cell cytotoxicity, dose response, cytotoxicity control for Salmonella PhoP regulon inhibitors, S. typhimurium screen hits (AID 2253)
Consider the following compounds; for each one, report its EC50.

compound	observable	experimentalResult
O=C1NC(=S)S/C1=C\C=C\c1ccc([N+](=O)[O-])o1	EC50	9.07 µM
Nc1c(C(=O)NCCc2ccc(Cl)cc2)sc2ccc(S(=O)(=O)N3CCCCC3)cc12	EC50	31.5 µM
CCn1c2ccccc2c2cc(/C=N/NC(=O)c3ccccc3)ccc21	EC50	4.12 µM
CCCCn1c(/N=C/c2c[nH]c3ccccc23)nc2ccccc21	EC50	27.2 µM
COc1cc(C(=O)NC(=S)Nc2ccc3oc(=O)ccc3c2)cc(OC)c1OC	EC50	45.9 µM

Please go through the list and note EC50 for each compound.
1. Oc1ccc(/C=N/Nc2nccnc2Cl)c(O)c1
2. COc1ccc(-c2cn[nH]c2-c2ccc(OCc3ccc([N+](=O)[O-])cc3)cc2O)cc1

Completion:
1.39 µM
15.1 µM

Each of the following entries comes with a recorded value; kindly state EC50 for each.
1. CC[n+]1c(/C=C/N(C)c2ccccc2)n(-c2ccccc2)c2ccc(-c3nc4ccccc4s3)cc21
2. CN1c2ccccc2C(C)(C)[C@]12C=Cc1cc(O)ccc1O2
3. CCCCCCCCCCOC(=O)Cn1c(COc2ccccc2)[n+](C)c2ccccc21
4. N/C(=N/OC(=O)c1ccccc1Cl)c1ncc([N+](=O)[O-])s1
5. CCCCCCCCCCCCCCCC[n+]1cccc(C(=O)N(CC)CC)c1

Completion:
1. 0.46 µM
2. 15.4 µM
3. 8.34 µM
4. 18.8 µM
5. 0.64 µM

###

Hi there, I'd appreciate the recorded EC50 for every entry that follows.
Tested on: THP-1 viability, CellTiter-Glo luminescence, 72 h
Experiment: THP-1 cell cytotoxicity, dose response, cytotoxicity control for Salmonella PhoP regulon inhibitors, S. typhimurium screen hits (AID 2253)

molecule	assayedSystem	experimentalResult
O=c1[nH]c(CSc2ncc(-c3ccc(F)cc3)n2Cc2ccco2)nc2ccccc12	THP-1 viability, CellTiter-Glo luminescence, 72 h	47 µM

Please state, for each entry, its recorded EC50.
1. N#Cc1c(NC(=O)c2cnccn2)sc2c1CCCC2
2. CC(C)NCCCOc1ccc(Cl)cc1Br
3. COc1c(Cl)cnn(-c2ccc(C)cc2)c1=O
4. c1cnc2c(c1)ccc1cccnc12

Completion:
["9.25 µM", "44.7 µM", "16.5 µM", "3.8 µM"]

###

Tested on: THP-1 viability, CellTiter-Glo luminescence, 72 h
Test: THP-1 cell cytotoxicity, dose response, cytotoxicity control for Salmonella PhoP regulon inhibitors, S. typhimurium screen hits (AID 2253)
Would you kindly list EC50 for each of these compounds?

# batch size: 3; output EC50 per entry
1. Cc1ccc(C(=O)Sc2cccccc2=O)cc1
2. Nc1ncn([C@@H]2O[C@H](CO)[C@@H](O)[C@H]2O)c(=O)n1
3. CC1(C)SC(=S)N(NC(=O)Nc2ccccc2)C1N(O)C(=O)Nc1ccccc1 (stereo unspecified)

Completion:
1: 2.64 µM; 2: 17.4 µM; 3: 37.8 µM

###

Test system: THP-1 viability, CellTiter-Glo luminescence, 72 h
Assay: THP-1 cell cytotoxicity, dose response, cytotoxicity control for Salmonella PhoP regulon inhibitors, S. typhimurium screen hits (AID 2253)
observable: EC50

These solved cases illustrate the format of a correct answer.
molecule	EC50
CCCOc1ccc(C(=O)C(CCC(CNCC)C(=O)c2ccc(OCCC)cc2)CNCC)cc1 (stereo not given)	1.58 µM
Oc1ccc(NCc2ccccc2OCc2ccccc2F)cc1	19.9 µM
CCCCCCCCCC[n+]1cccc2c3ccccc3ccc21	0.6 µM
O=C(c1ccccc1)C(CN1CCCC1)c1ccccc1 (stereo not given)	5.56 µM
OCc1ccc(O)c2ncccc12	3.26 µM

Hello, I would appreciate it if you could give EC50 for each entry below.
1. Cc1nn(-c2ccccc2)c(C)c1/C=N/NC(=O)c1cc(-c2cccc3ccccc23)n[nH]1
2. Cc1cc(/C=N/NC(=O)c2cccc([N+](=O)[O-])c2)c(C)n1-c1ccc(Cl)cc1Cl
3. CC(C)c1ccc(C2C3CSCC=C3C(C#N)=C(N)C2(C#N)C#N)cc1 (stereo not given)

Completion:
1. 17.4 µM
2. 43.9 µM
3. 39.7 µM

Provide reported EC50 for each item, in the same order as listed.
1. c1ccc(Nc2cc(Nc3ccccc3)[nH]n2)cc1
2. C[C@H]1c2cccc(O)c2C(O)=C2C(=O)C3(O)C(O)=C(C(N)=O)C(=O)[C@@H](N(C)C)[C@@H]3[C@@H](O)[C@@H]21 (stereo not given in full)

Completion:
23.7 µM
34.4 µM
